Every entry's value here was drawn from patent US8906416B2.

List of IC50 values.
# System: B16-F10 cells
# protocolSummary: Melanin assay test in B16-F10 cells
# Format: cell-based, murine
# conditionNotes: Mus musculus, B16-F10; 0.1 μM α-MSH stimulated, 72 hours treatment; read-out: Results activity B16-F10 IC50 (50% melanin synthesis inhibition)
measurementType: IC50 (µM)

[[record]]
molecule = "COc1cc(C2C3=C(CC(C(C)C)CC3=O)OC3=C2C(=O)CC(C(C)C)C3)ccc1O (stereo not drawn)"
measurementtype = "IC50"
unitlabel = "µM"
experimentalvalue = 16

[[record]]
molecule = "CCOc1cc(C2C3=C(CC(C)(C)CC3=O)OC3=C2C(=O)CC(C)(C)C3)ccc1O"
measurementtype = "IC50"
unitlabel = "µM"
experimentalvalue = 19

[[record]]
molecule = "COc1cc(C2C3=C(CC(c4ccccc4)CC3=O)OC3=C2C(=O)CC(c2ccccc2)C3)ccc1O (stereo not drawn)"
measurementtype = "IC50"
unitlabel = "µM"
experimentalvalue = 6

[[record]]
molecule = "CC1(C)CC(=O)C2=C(C1)OC1=C(C(=O)CC(C)(C)C1)C2c1cc(C(C)(C)C)c(O)c(C(C)(C)C)c1"
measurementtype = "IC50"
unitlabel = "µM"
experimentalvalue = 2

[[record]]
molecule = "COc1cc(C2C3=C(CC(C)(C)CC3=O)OC3=C2C(=O)CC(C)(C)C3)ccc1O"
measurementtype = "IC50"
unitlabel = "µM"
experimentalvalue = 50

[[record]]
molecule = "COc1cc(C2C3=C(CC(C)(C)CC3=O)OC3=C2C(=O)CC(C)(C)C3)cc(OC)c1O"
measurementtype = "IC50"
unitlabel = "µM"
experimentalvalue = 45

